Biological target: T1, cynomolgus monkey E-selectin extracellular domain with 10 His purification tail (cynomolgus monkey, UniProt P16581 22-554 (human entry))
T1 construct: also called cynomolgus E-selectin; truncated cynomolgus monkey E-selectin
T1 chain: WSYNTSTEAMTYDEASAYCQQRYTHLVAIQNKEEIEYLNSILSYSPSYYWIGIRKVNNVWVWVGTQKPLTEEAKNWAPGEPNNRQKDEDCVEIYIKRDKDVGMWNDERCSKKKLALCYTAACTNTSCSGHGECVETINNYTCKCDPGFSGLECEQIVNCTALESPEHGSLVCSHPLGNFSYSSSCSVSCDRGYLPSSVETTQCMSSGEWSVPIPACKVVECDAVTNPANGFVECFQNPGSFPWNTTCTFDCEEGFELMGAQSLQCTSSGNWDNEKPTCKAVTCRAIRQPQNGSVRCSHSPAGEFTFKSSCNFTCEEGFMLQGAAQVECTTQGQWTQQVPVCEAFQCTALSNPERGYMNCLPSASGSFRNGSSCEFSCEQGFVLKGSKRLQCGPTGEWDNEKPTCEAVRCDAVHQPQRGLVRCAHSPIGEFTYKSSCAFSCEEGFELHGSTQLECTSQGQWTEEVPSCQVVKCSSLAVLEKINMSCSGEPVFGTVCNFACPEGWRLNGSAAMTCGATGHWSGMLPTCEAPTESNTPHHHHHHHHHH
Assay: SPR, antibody captured, E-selectin analyte
QUANTITY_KIND: kon (M⁻¹ s⁻¹)
Please reply with the bare figure in M⁻¹ s⁻¹ and do not write the unit itself.

BINDER	RESULT_UNITS	TEST_VALUE
anti-E-selectin antibody 0180 chimera (antibody, human IgG1, kappa, V domains shown, rat VH/VL on effector-null human IgG1 and human kappa) VH: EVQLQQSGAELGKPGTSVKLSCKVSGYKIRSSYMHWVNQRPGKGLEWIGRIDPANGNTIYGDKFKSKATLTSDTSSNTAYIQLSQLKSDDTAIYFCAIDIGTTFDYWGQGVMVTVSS VL: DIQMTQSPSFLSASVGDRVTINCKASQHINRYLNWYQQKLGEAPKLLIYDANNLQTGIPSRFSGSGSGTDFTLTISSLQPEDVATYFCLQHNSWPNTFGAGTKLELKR	M⁻¹ s⁻¹	245000
anti-E-selectin antibody 0170 chimera (antibody, human IgG1, kappa, V domains shown, rat VH/VL on effector-null human IgG1 and human kappa) VH: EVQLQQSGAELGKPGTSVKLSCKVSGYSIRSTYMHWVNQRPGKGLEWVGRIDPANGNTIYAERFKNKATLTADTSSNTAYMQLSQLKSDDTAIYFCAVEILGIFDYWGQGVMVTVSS VL: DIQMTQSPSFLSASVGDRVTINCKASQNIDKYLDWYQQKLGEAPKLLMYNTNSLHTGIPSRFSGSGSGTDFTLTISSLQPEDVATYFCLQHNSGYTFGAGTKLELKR	M⁻¹ s⁻¹	115000
anti-E-selectin antibody 0159 chimera (antibody, human IgG1, kappa, V domains shown, rat VH/VL on effector-null human IgG1 and human kappa) VH: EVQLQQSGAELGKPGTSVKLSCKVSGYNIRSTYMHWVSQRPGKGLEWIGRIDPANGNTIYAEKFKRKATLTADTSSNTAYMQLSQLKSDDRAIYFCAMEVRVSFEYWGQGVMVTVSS VL: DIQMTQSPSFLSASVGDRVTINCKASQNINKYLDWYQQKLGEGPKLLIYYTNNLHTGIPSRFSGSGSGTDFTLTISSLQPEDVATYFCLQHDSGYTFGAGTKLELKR	M⁻¹ s⁻¹	154000

Consider the record given below.
Lab note: measured kon of anti-E-selectin antibody 0039 chimera (antibody, human IgG1, kappa, V domains shown, rat VH/VL on effector-null human IgG1 and human kappa) VH: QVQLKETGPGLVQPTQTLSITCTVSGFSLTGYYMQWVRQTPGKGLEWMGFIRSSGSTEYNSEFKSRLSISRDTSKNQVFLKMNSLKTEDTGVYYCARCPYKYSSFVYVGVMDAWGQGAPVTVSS VL: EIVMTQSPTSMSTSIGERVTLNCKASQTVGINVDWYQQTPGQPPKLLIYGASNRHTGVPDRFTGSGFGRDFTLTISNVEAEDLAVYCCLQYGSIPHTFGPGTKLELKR was 82400
